biological target: human enzyme NAMPT (full length) (Homo sapiens, UniProt P43490); construct: human enzyme NAMPT (full length); assay: NMN fluorescence biochemical assay (stimulation of NMN synthesis by NAMPT); details: NMN synthesis by purified human NAMPT (100 nM); concentration giving half-maximal activation; read-out: Enzymatic EC50
Sequence (P43490 whole entry): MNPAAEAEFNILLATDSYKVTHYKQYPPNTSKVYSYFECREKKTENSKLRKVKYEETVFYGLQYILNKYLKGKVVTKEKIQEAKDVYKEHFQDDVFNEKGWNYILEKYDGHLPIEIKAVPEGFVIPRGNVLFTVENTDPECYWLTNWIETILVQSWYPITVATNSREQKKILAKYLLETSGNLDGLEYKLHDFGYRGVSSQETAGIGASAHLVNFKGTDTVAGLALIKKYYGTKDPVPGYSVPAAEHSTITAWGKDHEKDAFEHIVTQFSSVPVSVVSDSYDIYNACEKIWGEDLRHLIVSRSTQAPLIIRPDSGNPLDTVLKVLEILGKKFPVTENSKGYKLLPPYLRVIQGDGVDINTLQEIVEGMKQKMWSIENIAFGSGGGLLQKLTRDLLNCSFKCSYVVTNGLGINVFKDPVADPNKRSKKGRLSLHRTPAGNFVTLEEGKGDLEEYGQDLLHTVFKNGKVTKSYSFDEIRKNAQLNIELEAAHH
A collection of compounds and their measured EC50

Previously resolved entries follow.
Q) Given O=C1c2ccccc2C(Cc2ccc3ncoc3c2)N1Cc1ccc2[nH]c(=O)oc2c1 (stereo not drawn) , respond with its EC50.
A) 0.5 to 5 µM

Q) Given Cc1cccnc1C[C@H]1c2ccccc2C(=O)N1Cc1ccc2[nH]c(=O)oc2c1 , respond with its EC50.
A) < 0.5 µM

Q) Given Cc1ccnc(Cl)c1CC1c2ccccc2C(=O)N1Cc1ccc2[nH]c(=O)oc2c1 (stereo not drawn) , respond with its EC50.
A) < 0.5 µM

Q) Given O=c1[nH]c2ccc(Cn3c(=O)c4ccccc4n3Cc3ccccc3C(F)(F)F)cc2o1 , respond with its EC50.
A) 0.5 to 5 µM

Q) Given O=C1c2ccccc2C(Cc2nccs2)N1Cc1ccc2[nH]c(=O)oc2c1 (stereo not drawn) , respond with its EC50.
A) ≥ 5 µM

Q) Given N#Cc1ccccc1CC1c2ccccc2C(=O)N1Cc1cc(F)c(O)c(F)c1 (stereo not drawn) , respond with its EC50.
A) 0.5 to 5 µM

Q) Given CCCn1c2ccccc2c(=O)n1Cc1ccc(O)cc1 , respond with its EC50.
A) ≥ 5 µM

Q) Given O=C1c2ccccc2C(C2CC2)N1Cc1ccc2[nH]c(=O)oc2c1 (stereo not drawn) , respond with its EC50.
A) ≥ 5 µM

With those in mind, consider the next compound.
Q) Given CC1c2cc(Cc3ccccc3)ccc2C(=O)N1Cc1ccc2[nH]c(=O)oc2c1 (stereo not drawn) , respond with its EC50.
A) 0.5 to 5 µM

###

target: human enzyme NAMPT (full length) (Homo sapiens, UniProt P43490); construct: human enzyme NAMPT (full length); experiment: NMN fluorescence biochemical assay (stimulation of NMN synthesis by NAMPT); conditions: fold change of maximal activation compared to DMSO
parameter: Enzymatic Emax

Q) Given Cc1ccccc1CC1c2ccccc2C(=O)N1Cc1ccc2[nH]c(=O)oc2c1 (centres unmarked) , respond with its Enzymatic Emax.
A) A (A>3)

Q) Given O=C1c2ccccc2C(Cc2ncco2)N1Cc1ccc2[nH]c(=O)oc2c1 (centres unmarked) , respond with its Enzymatic Emax.
A) A (A>3)

Q) Given O=C1c2ccccc2C(Cc2ccc3ncoc3c2)N1Cc1ccc2[nH]c(=O)oc2c1 (centres unmarked) , respond with its Enzymatic Emax.
A) A (A>3)

###

biological target: human enzyme NAMPT (full length) (Homo sapiens, UniProt P43490); construct: human enzyme NAMPT (full length); experiment: NMN fluorescence biochemical assay (stimulation of NMN synthesis by NAMPT); settings: NMN synthesis by purified human NAMPT (100 nM); concentration giving half-maximal activation; read-out: Enzymatic EC50
A collection of compounds and their measured EC50

Previously resolved entries follow.
Q) Given N#Cc1ccccc1CC1c2ccccc2C(=O)N1Cc1ccc2[nH]nnc2c1 (centres unmarked) [Compound 189] , respond with its EC50.
A) 0.5 to 5 µM

Q) Given CC1c2cc(Cl)ccc2C(=O)N1Cc1ccc2[nH]c(=O)oc2c1 (centres unmarked) [Compound 265] , respond with its EC50.
A) ≥ 5 µM

Q) Given Nn1c(=O)oc2cc(CN3C(=O)c4ccccc4C3Cc3ncccc3Br)ccc21 (centres unmarked) [Compound 256] , respond with its EC50.
A) ≥ 5 µM

Q) Given CC1c2cc(NC3CCCC3)ccc2C(=O)N1Cc1ccc2[nH]c(=O)oc2c1 (centres unmarked) [Compound 81] , respond with its EC50.
A) ≥ 5 µM

New cases:
Q) Given N#CCc1ccccc1CC1c2ccccc2C(=O)N1Cc1ccc2[nH]c(=O)oc2c1 (centres unmarked) [Compound 173] , respond with its EC50.
A) 0.5 to 5 µM
